- test: soluble on expression in E. coli; label from the status in PepcDB or PDB records

item.sequence | soluble on expression in E. coli
MESNNNEKKKVARQSSSFRLRSPSLNALRLQRIFDLFDKNGDGFITVEELSQALTRLGLNADLSDLKSTVESYIQPGNTGLNFDDFSSLHKTLDDSFFGGACGGGENEDDPSSAAENESDLAEAFKVFDENGDGFISARELQTVLKKLGLPEGGEMERVEKMIVSVDRNQDGRVDFFEFKNMMRTVVIPSS | soluble
MRIELSIKADDSLVSFSHQHLLVGTLQKWLGENDMHGKSISYSFSRLNGGKLVSELNSILFADWANMFVSAHDPELIRRMLAGIRQDPEMFKSLCVREVTVIEDPDMTDREIFFPASPILLKRWREDNGFDHIVYTDEAANALLTENLRKKLQAVGIDDPTATASFVPDQGKAKVMLIDYRGVKNKASWCPIRIIGNAETKLFAWNAGIGNSTGIGFGAIK | not soluble
MAAFNDTLRAEIEEKKEDSVSERTTRNGKILNAKDEPEFGMNITPTTLFFKYPIGGIGYSFFTVTNTTSEKQAFKVKSSDNTWFRSKPSVGFIKSGEKVHVRVTFNSPDAGKERPERGSDNKNHVAIFHVAAGDAKTYKEAFAKKAADGVHHFFARHLAEPGAQVDKEADEKAPNGA | soluble
MNTFGTRLKFTSFGESHGVAVGCIIDGMPAGVKFDEEFLQNELDKRKGGSKFATPRKESDKAQVLSGVFEGYTTGHPIAIVVFNENAHSKDYDNLKDLFRPAHADFTYFYKYGIRDHRGGGRSSARESVARVAGGAVAAMLLREFDICVQSGVFGVGTFVSNLKEEEFDFEFAKKSEIFCLDPKLESDFKNEILNARNSKDSVGAAVFTKVSGMLIGLGEVLYDKLDSKLAHALMGINAVKAVEIGEGINASKMRGSCNNDALKDGKFLSNHSGGILGGISNGENLILKTYFKPTPSIFAKQESIDKFGNNLKFELKGRHDPCVGVRGSVVASAMVRLVLADCLLLNASANLNNLKNAYGLKLEHHHHHH | soluble
MLNEIICAGFGGQGVLTAGKIIMYVAYKAEKKITWFPSYGNEMRGGSANCNVVVSDEKIANPCVKNPDILLGMNSVSVDKYESLMKKNGYMFVNESLVSKDRKYREDINVIKVPVTEIAQNLGNEKAANICMLGAMVKSLDLFTKEEFESGMCEYFENQGKGKFNSKNVEAFEAGYDYE | not soluble
MGSDKIHHHHHHMDIIREITPLSEKDCFYIVDRRKTEFTYPIHCHSEYELNFIEHAPGVRRVVGDSAEVIGEYELVLITGKELEHVWEQNACKSPLIHEITIQFSPDLFGKNLLEKNQFNSIRKMLEKAQCGISFPMSSILKVYHLLEKLVSEEQSFYAVINFLTILYELSVEENYKVLASSSFAKITDIHSESRRIQKVQNYINERYQQDIRLNQLAELVGMAPSAFSRFFKLRTGKTLSDYITDIRIGYAARMLVDTQRSIAEICYDCGFNNLSNFNRIFKKKKNCSPKEFRDNYKKTKIIV | not soluble
TLINHLKSLKSQVSAKSASETSQTKQNKTFLAFTTVNADQKAIFDVGKLNGKTAKIIINATETTNAKISTLQEKEAIVLKAPQRFESTDPFPI | not soluble
